Test system: MCF-7 VP
protocol_description: BrdU-Assay, IC-50 against cancer cell line MCF-7 VP
Type: cell-based
conditions: Homo sapiens, MCF7-VP
Text: Determination of the IC-50 Concentration Against Various Cancer Cell Lines The activity of some representative example compounds of the present invention has been determined with the BrdU-Assay as described in: Porstmann T., Ternynck T., Avrameas S. (1985) “Quantification of 5-bromo-2-deoxyuridine incorporation into DNA: an enzyme immunoassay for the assessment of the lymphoid cell proliferative response.” J. Immunol. Methods 82: 169-179.
For each entry below, report its pIC50 value.
Numbers only, as −log10 of the molar value.

# return pIC50 for each item in the list
1. CCCN(C(=O)C(NC(=O)C1CCCCN1C)[C@@H](C)CC)[C@H](C[C@@H](OC(C)=O)c1nc(C(=O)N[C@H](CO)Cc2ccccc2)cs1)C(C)C (some centres unmarked)
2. CCCN(C(=O)C(NC(=O)C1CCCCN1C)[C@@H](C)CC)[C@H](C[C@@H](OC(C)=O)c1nc(C(=O)N[C@@H](Cc2ccccc2)C[C@H](C)CO)cs1)C(C)C (some centres unmarked)
3. CC[C@H](C)C(NC(=O)C1CCCCN1C)C(=O)N(C)[C@H](C[C@@H](OC(C)=O)c1nc(C(=O)N[C@@H](Cc2ccccc2)C[C@H](C)CO)cs1)C(C)C (some centres unmarked)
4. CCCN(C(=O)C(NC(=O)C1CCCCN1C)[C@@H](C)CC)[C@H](C[C@@H](OCOC)c1nc(C(=O)N[C@@H](Cc2ccccc2)C[C@H](C)CO)cs1)C(C)C (some centres unmarked)
5. CC[C@H](C)C(NC(=O)C1CCCCN1C)C(=O)N[C@H](C[C@@H](OC(C)=O)c1nc(C(=O)N[C@@H](Cc2ccccc2)C[C@H](C)CO)cs1)C(C)C (some centres unmarked)

Result block:
1: 9.27; 2: 9.06; 3: 8.92; 4: 8.20; 5: 8.52
